Values from patent US4672068A

Tested on: Male spontaneously hypertensive rats (SHR), arterial blood pressure
Assay: Depressor response after intraduodenal administration (1 mg/kg), Table 2
Type: in vivo, rat
Conditions: '120<' means greater than 120
readout_name: Half-life

The reported Half-life of the compound CC=CC=CCOC(=O)C1=C(C)NC(C)=C(C(=O)OC)C1c1cccc([N+](=O)[O-])c1 (stereo not drawn) was > 2 h

The reported Half-life of the compound COC(=O)C1=C(C)NC(C)=C(C(=O)OC(C)C=Cc2ccco2)C1c1cccc([N+](=O)[O-])c1 (stereo not drawn) was > 4 h

The reported Half-life of the compound COC(=O)C1=C(C)NC(C)=C(C(=O)OCC/C=C/c2ccc3ccccc3c2)C1c1cccc([N+](=O)[O-])c1 (stereo not drawn) [12 (trans)] was 1.67 h

The reported Half-life of the compound CCOC(=O)C1=C(C)NC(C)=C(C(=O)OCC=Cc2ccccc2)C1c1cccc([N+](=O)[O-])c1 (stereo not drawn) was > 2 h

The reported Half-life of the compound COC(=O)C1=C(C)NC(C)=C(C(=O)OCC#Cc2ccccc2)C1c1cccc([N+](=O)[O-])c1 (stereo not drawn) was > 4 h

The reported Half-life of the compound COC(=O)C1=C(C)NC(C)=C(C(=O)OCCN(C)Cc2ccccc2)C1c1cccc([N+](=O)[O-])c1.Cl (stereo not drawn) [B, reference compound] was 0.778 h

The reported Half-life of the compound COC(=O)C1=C(C)NC(C)=C(C(=O)OCCC=Cc2ccc(SC)cc2)C1c1cccc([N+](=O)[O-])c1 (stereo not drawn) was > 2.67 h

The reported Half-life of the compound COC(=O)C1=C(C)NC(C)=C(C(=O)OCCC=Cc2ccccc2)C1c1cccc([N+](=O)[O-])c1 (stereo not drawn) was > 2.83 h

The reported Half-life of the compound COC(=O)C1=C(C)NC(C)=C(C(=O)OCCC=Cc2cccs2)C1c1cccc([N+](=O)[O-])c1 (stereo not drawn) was 4 h

* * *

Tested on: Male SHR, systolic blood pressure
Experiment: Systolic blood pressure by tail cuff method, oral administration (3 mg/kg), Table 4
Format: in vivo, rat
Conditions: conscious SHR, '24<' means greater than 24
readout_name: Duration

The reported Duration of the molecule COC(=O)C1=C(C)NC(C)=C(C(=O)OC/C=C/c2ccccc2)C1c1cccc([N+](=O)[O-])c1 (stereo not shown) [Example 1] was 7 to 24 h

The reported Duration of the molecule COC(=O)C1=C(C)NC(C)=C(C(=O)OC)C1c1ccccc1[N+](=O)[O-] [A, reference compound] was < 7 h

The reported Duration of the molecule COC(=O)C1=C(C)NC(C)=C(C(=O)OCC#Cc2ccccc2)C1c1cccc([N+](=O)[O-])c1 (stereo not shown) [Example 55] was > 24 h

The reported Duration of the molecule CC1=C(C(=O)OCC=Cc2ccccc2)C(c2cccc([N+](=O)[O-])c2)C(C(=O)OCCOc2ccccc2)=C(C)N1 (stereo not shown) [Example 44] was 7 to 24 h

* * *

Kindly state ΔBP After 3 hours for each of the entries shown.
Tested on: Male SHR, systolic blood pressure
Assay: Systolic blood pressure by tail cuff method, oral administration (3 mg/kg), Table 4
Format: in vivo, rat
Conditions: conscious SHR, 3 hours
API: value field is a number in mmHg; no unit string.

The reported ΔBP After 3 hours of the compound COC(=O)C1=C(C)NC(C)=C(C(=O)OCCC=Cc2ccc3ccccc3c2)C1c1cccc([N+](=O)[O-])c1 (stereo not shown) was -55

The reported ΔBP After 3 hours of the compound COC(=O)C1=C(C)NC(C)=C(C(=O)OCCN(C)Cc2ccccc2)C1c1cccc([N+](=O)[O-])c1.Cl (stereo not shown) [B, reference compound] was -4.5

The reported ΔBP After 3 hours of the compound COC(=O)C1=C(C)NC(C)=C(C(=O)OC/C=C/c2ccccc2)C1c1cccc([N+](=O)[O-])c1 (stereo not shown) was -80.5

The reported ΔBP After 3 hours of the compound CC1=C(C(=O)OCC=CC=Cc2ccccc2)C(c2cccc([N+](=O)[O-])c2)C(C(=O)OC(C)C)=C(C)N1 (stereo not shown) was -100
